solubility at 1 h listing for selected molecules.
- test.summary: Saline solubility at 1.00 mg/mL and 0.50 mg/mL (with pH by indicator paper)
- Format: physicochemical
- experimental.setup: saline or isotonic, thermodynamic from solid, 1.00 mg/mL as hydroxamate 1, shaken 1 hour, centrifuged, soluble = no precipitate formed, read-out: Soluble at 1.00 mg/mL of MGCD290 (Y/N)
- Experimental: Assays were performed to determine the saline solubility at 1.00 and 0.50 mg/ml and the stability of certain of the prodrug compounds of Examples 1-111. The following procedures were used. Step 1. Sample preparation. […] The pH was measured with pH indicator paper. […] The vial was shaken on a Vortex apparatus, injected into the HPLC instrument (UV detection, zero time point) and the retention time and purity of the sample compound were determined. […]
Where a name gives a salt, the structure may show the parent alone.

molecule | solubility at 1 h
COCCOCC(=O)NCCC[C@H](NC(=O)COCCOC)C(=O)NCCC(=O)ONC(=O)Cc1ccc(CCCCc2ccccc2)cc1 | < 1000 µg/mL

input: Look up solubility at 1 h for this molecule: `Cl.O=C(Cc1ccc(CCCCc2ccccc2)cc1)NOC(=O)C1CCNCC1`
output: < 1000 µg/mL

input: Another: `NCC1(C(=O)ONC(=O)Cc2ccc(CCCCc3ccccc3)cc2)CC1`
output: > 1000 µg/mL

input: Another: `COCCOCC(=O)NCC[C@H](NC(=O)COCCOC)C(=O)NCCC(=O)ONC(=O)Cc1ccc(CCCCc2ccccc2)cc1`
output: < 1000 µg/mL

input: Another: NCCNCC(=O)NCCC(=O)ONC(=O)Cc1ccc(CCCCc2ccccc2)cc1 [Compound 135, dihydrochloride]
output: > 1000 µg/mL

input: Another: `COCCOCCOCC(=O)NCCCC[C@H](NC(=O)COCCOCCOC)C(=O)NCCC(=O)ONC(=O)Cc1ccc(CCCCc2ccccc2)cc1`
output: > 1000 µg/mL

input: Another: `CC(=O)OCC(=O)NCC[C@H](NC(=O)COC(C)=O)C(=O)NCCC(=O)ONC(=O)Cc1ccc(CCCCc2ccccc2)cc1`
output: < 1000 µg/mL

input: Another: CC(=O)ONC(=O)Cc1ccc(CCCCc2ccccc2)cc1 [Compound 52D]
output: < 1000 µg/mL

input: Another: `COCCOCCOCCOCCOCC(=O)NCCC[C@H](NC(=O)COCCOCCOCCOCCOC)C(=O)NCCC(=O)ONC(=O)Cc1ccc(CCCCc2ccccc2)cc1`
output: < 1000 µg/mL

input: Another: `Cl.O=C(Cc1ccc(CCCCc2ccccc2)cc1)NOC(=O)CCN1CCNCC1=O`
output: > 1000 µg/mL

input: Another: `COCCOCCOCCOCCOCC(=O)NCCCC[C@H](NC(=O)COCCOCCOCCOCCOC)C(=O)NCCC(=O)ONC(=O)Cc1ccc(CCCCc2ccccc2)cc1`
output: > 1000 µg/mL

input: Another: `COCCOCCOCC(=O)NCCC(=O)ONC(=O)Cc1ccc(CCCCc2ccccc2)cc1`
output: < 1000 µg/mL

input: Another: `COCCOCCOCCOCC(=O)NCCCC[C@H](NC(=O)COCCOCCOCCOC)C(=O)NCCCC(=O)ONC(=O)Cc1ccc(CCCCc2ccccc2)cc1`
output: > 1000 µg/mL

input: Another: `COCCOCCOCC(=O)NCC1(C(=O)ONC(=O)Cc2ccc(CCCCc3ccccc3)cc2)CC1`
output: < 1000 µg/mL

input: Another: `CC(=O)OCC(=O)NCCC[C@H](NC(=O)COC(C)=O)C(=O)NCCC(=O)ONC(=O)Cc1ccc(CCCCc2ccccc2)cc1`
output: < 1000 µg/mL

input: Another: COCCC(=O)ONC(=O)Cc1ccc(CCCCc2ccccc2)cc1 [Compound 52B]
output: < 1000 µg/mL

input: Another: `CC(C)NC(=O)ONC(=O)Cc1ccc(CCCCc2ccccc2)cc1`
output: < 1000 µg/mL

input: Another: `O=C(Cc1ccc(CCCCc2ccccc2)cc1)NOC(=O)CCC1CCCC1`
output: < 1000 µg/mL

input: Another: `Cl.O=C(Cc1ccc(CCCCc2ccccc2)cc1)NOC(=O)CCC(=O)N1CCNCC1`
output: > 1000 µg/mL

input: Another: `O=C1COCCOCCOCC(=O)N[C@H](C(=O)NCCC(=O)ONC(=O)Cc2ccc(CCCCc3ccccc3)cc2)CCCCN1`
output: < 1000 µg/mL
